# Target or system: T1, human serum albumin (human, UniProt P02768 25-609)
# T1 construct: Negative control antigen of the screening ELISA; also called HSA
# T1 sequence (P02768 25-609 limits assumed): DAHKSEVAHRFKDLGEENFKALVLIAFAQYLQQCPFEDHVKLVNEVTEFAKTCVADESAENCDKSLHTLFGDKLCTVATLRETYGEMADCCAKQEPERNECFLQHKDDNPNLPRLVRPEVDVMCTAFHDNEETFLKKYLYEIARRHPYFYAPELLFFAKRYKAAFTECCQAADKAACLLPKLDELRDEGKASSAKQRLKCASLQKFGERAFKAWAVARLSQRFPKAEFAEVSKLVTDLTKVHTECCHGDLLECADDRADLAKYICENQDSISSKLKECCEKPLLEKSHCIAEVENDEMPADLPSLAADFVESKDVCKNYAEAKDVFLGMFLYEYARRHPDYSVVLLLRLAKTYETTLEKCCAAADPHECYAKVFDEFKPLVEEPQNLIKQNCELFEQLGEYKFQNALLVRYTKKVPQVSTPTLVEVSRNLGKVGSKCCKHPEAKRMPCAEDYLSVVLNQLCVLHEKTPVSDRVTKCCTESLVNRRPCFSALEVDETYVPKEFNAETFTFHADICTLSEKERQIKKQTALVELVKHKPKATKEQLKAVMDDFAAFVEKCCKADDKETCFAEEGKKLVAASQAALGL
# Assay comment: ELISA, bacterial lysate on plate-bound antigen, luminescence
Entries and their ELISA HSA (RLU) values follow.
Parameter: ELISA HSA (RLU)

Binder	Quantity unit	Reading
ISOP120AR5P1B12 (designed binder, not shown: small tags and cut ends, FN3 domain (Centyrin)) LPAPKNLVVSRVTEDSARLSWDGDKWANFKFDSFLIQYQESEKVGEAIVLTVPGSERSYDLTGLKPGTEYTVSIYGVGLHYIVYDSNPLSAIFTT	RLU	480
ISOP120ER5P1A7 (designed binder, not shown: small tags and cut ends, FN3 domain (Centyrin); tested as E. coli lysate) LPAPKNLVVSRVTEDSARLSWTAPDAAFDSFNIGYYERIIPGEAIVLTVPGSERSYDLTGLKPGTEYSVLICGVKGGKGSIPLSAIFTT	RLU	400

Measured values drawn from patent US20220259289A1 for this set.
